Where do the numbers come from? From paper PMC6166404.

# TARGET_OF_ASSAY: MtbIMPDH2ΔCBS (Mycobacterium tuberculosis, UniProt P9WKI7, R252G)
# Format: biochemical
RECORDED_METRIC: fold increase in MtbIMPDH2ΔCBS inhibitory activity compared to 2 (fold)
Express your answer in fold, writing the number without its unit.

See these solved cases before continuing.
Look up and state reported fold increase in MtbIMPDH2ΔCBS inhibitory activity compared to 2 for C[C@H](Oc1cccc(Cl)c1Cl)C(=O)Nc1ccc2oc(-c3ccc(OC(F)(F)F)cc3)nc2c1
7

Look up and state reported fold increase in MtbIMPDH2ΔCBS inhibitory activity compared to 2 for C[C@H](Oc1cccc(Cl)c1Cl)C(=O)Nc1ccc2oc(-c3ccc(O)cc3)nc2c1
2

Continuing:
Look up and state reported fold increase in MtbIMPDH2ΔCBS inhibitory activity compared to 2 for COc1ccc(-c2nc3cc(NC(=O)[C@H](C)Oc4cccc(Cl)c4Cl)ccc3o2)cc1
7

Look up and state reported fold increase in MtbIMPDH2ΔCBS inhibitory activity compared to 2 for C[C@H](Oc1cccc(Cl)c1Cl)C(=O)Nc1ccc2oc(-c3ccc(C#N)cc3)nc2c1
7

Look up and state reported fold increase in MtbIMPDH2ΔCBS inhibitory activity compared to 2 for COc1ccc(-c2nc3cc(NC(=O)[C@H](C)Oc4cccc(Cl)c4Cl)ccc3o2)cn1
5
